assay: HPLC stability of vecuronium bromide solutions with anionic additives (Example 1); format: physicochemical
observation type: effect of the additive on vecuronium solution stability (in words)

In [3]: df
Out[3]:
        compound_structure                 result
0       O=S(=O)(O)c1ccccc1  most stable solutions
1       O=C(O)c1cc(O)ccc1O  most stable solutions
2    Cc1ccc(S(=O)(=O)O)cc1  most stable solutions
3  O=C1NS(=O)(=O)c2ccccc21  most stable solutions

This collection of values is drawn from patent US7838515B2.
